MEASUREMENT_PROTOCOL: chemical genetic growth profiling, strain panel (AID 1159580);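 note: tested at 20 µM; growth read once vehicle control cultures reached saturation at 30 °C; 1 = growth at the plate median or of vehicle wells; lower values mean less growth of the strain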
PROTOCOL_CONDITIONS: S. cerevisiae deletion strains, growth OD, locus YGL086W, strain mad1, hits give low values
About 2,000 (36%) of roughly 5,500 compounds were called active. Another 18% or so got no clear call; they are omitted. This is one part of the list.
PROPERTY: normalized growth
Answer with a number only.

Solved cases (5 shown):
>>> measured_number("Oc1cc(O)c2c(c1)OC(c1cc(O)c(O)c(O)c1)C(O)C2c1c(O)cc(O)c2c1OC(c1cc(O)c(O)c(O)c1)C(O)C2c1c(O)cc(O)c2c1OC(c1cc(O)c(O)c(O)c1)C(O)C2 (stereo not given)")
0.964
>>> measured_number("CN1CCC(OC(c2ccccc2)c2ccccc2)CC1")
0.987
>>> measured_number("COc1ccc2c(c1)OC1(O)COc3cc(OC)c(OC)cc3C1=C2 (stereo not given)")
0.97
>>> measured_number("COc1ccc([C@H]2Oc3c(I)c(OC)cc(OC)c3C[C@@H]2O)cc1OC")
0.997
>>> measured_number("C=CCc1ccc(OC(=O)c2ccccc2)c(OC)c1")
0.933

Exercise: Quick one: normalized growth for `Oc1cc(O)c2c(c1)O[C@H](c1ccc(O)c(O)c1)[C@H](O)C2` ?
Solution: 0.994

Exercise: Quick one: normalized growth for `Oc1cc(O)c2c(c1)O[C@H](c1ccc(O)c(O)c1)[C@@H](O)C2` ?
Solution: 1.04

Exercise: Quick one: normalized growth for `O=C1NCC2(CCN(CCc3ccccc3)CC2)O1` ?
Solution: 0.993

Exercise: Quick one: normalized growth for `C#CCN(C)Cc1ccccc1` ?
Solution: 0.998

Exercise: Quick one: normalized growth for `NS(=O)(=O)c1cc2c(cc1Cl)NC=NS2(=O)=O` ?
Solution: 1
